Biological target: MAGL (recombinant wild-type) (Homo sapiens, UniProt Q99685)
Sequence (Q99685 whole entry, species assumed): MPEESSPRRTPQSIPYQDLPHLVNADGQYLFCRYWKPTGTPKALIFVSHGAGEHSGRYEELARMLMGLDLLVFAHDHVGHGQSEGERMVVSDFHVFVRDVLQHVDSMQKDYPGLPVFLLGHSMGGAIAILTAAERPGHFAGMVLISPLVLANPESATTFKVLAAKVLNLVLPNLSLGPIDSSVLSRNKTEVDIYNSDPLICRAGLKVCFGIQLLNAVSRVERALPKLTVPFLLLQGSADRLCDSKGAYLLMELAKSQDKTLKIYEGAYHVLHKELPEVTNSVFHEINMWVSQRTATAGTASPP
Test: 4-NPA assay: MAGL inhibitory activity by hydrolysis of 4-nitrophenylacetate, absorbance at 405 nm
Conditions: 4-NPA assay (values without footnote [b])
property: IC50 (nM)

CC(C)(CF)c1nc(-c2ccc(C(=O)N3CCN(c4nc5nc(Cl)ccc5o4)CC3)cc2)no1 [Example 20] | 19

[I] Cc1ccc2oc(N3CCN(C(=O)c4ccc(N5CC6(CCC6(F)F)C5)cc4)CC3)nc2n1 [Example 206]
[II] CC1CN(C(=O)c2ccc(-c3noc(C(C)(C)C)n3)cc2)CCN1c1nc2nc(Cl)ccc2o1 (stereo not shown) [Example 46]
[III] CC1(Cn2cnc(-c3ccc(C(=O)N4CCN(c5nc6nc(Cl)ccc6o5)CC4)cc3)n2)CC1 [Example 49]
Request: Task for the reader: rank each entry by its IC50, from the minimum upward. Quick reminder: the answer is the labels in the order asked.
Response: III, II, I
(III: 13 nM, II: 28 nM, I: 61 nM)
